Documented Residual turnover across a set of molecules
System: HPPD polypeptides
Test description: coupled HPPD activity assay: turnover and residual turnover in crude extracts
Assay type: biochemical, Pseudomonas fluorescens
Condition details: presence of 100 μM Cmpd. 1; high substrate concentration; changes in absorbance (OD) at 320 nm
Note: the reply should be a number with no unit written.

{"Molecule": "54 (protein, mutant HPPD polypeptide) MADLYENPMGLMGFEFIEFASPTPGTLEPIFEIMGFTKVATHRSKNVHLYRQGEINLILNNEPNSIASYFAAEHGPSVCGMAFRVKDSQKAYNRALELGAQPIHIDTGPMELNLPAIKGIGGAPLYLIDRFGEGSSIYDIDFVYLEGVERNPVGAGLKVIDHLTHNVYRGRMVYWANFYEKLFNFREARYFDIKGEYTGLTSKAMSAPDGMIRIPLNEESSKGAGQIEEFLMQFNGEGIQHVAFLTDDLVKTWDALKKIGMRFMTAPADNYYEMLEGRLPDHGEPVDQLQARGILLDGSSVEGDKRLLLQIFSETLMGPVFFEFIQRKGDDGFGPDSFKVLFEQKERDQVRRGVLTAD", "Assay endpoint": "Residual turnover", "Measured number": 0.059}

Attention now shifts to the item below.
Reported Residual turnover, molecule 2 (protein, mutant HPPD polypeptide) MADLYENPMGLMGFEFIEFASPTPGTLEPIFEIMGFTKVATHRSKNVHLYRQGEINLILNNEPNSIASYFAAEHGPSVCGMAFRVKDSQKAYNRALELGAQPIHIDTGPMELNLPAIKGIGGAPLYLIDRFGEGSSIYDIDFVYLEGVERNPVGAGLKVIDHLTHNVYRGRMVYWANFYEKLFNFREARYFDIKGEYTGLTSKAMSAPDGMIRIPLNEESSKGAGQIEEFLMQFNGEGIQHVAFLTDDLVKTWDALKKIGMRFMTAPPDTYYEMLEGRLPDHGEPVDQLQARGILLDGSSVEGDKRLLLQIFSETLMGPVFFEFIQRKGDDGFGPWNFAQLFESIERDQVRRGVLTAD : ____
0.026
